# tested-target: D(2) dopamine receptor (Homo sapiens)
# assay-name: Inhibition of human dopamine D2L receptor expressed in intact CHO FlpIn cells assessed as inhibition of receptor-mediated mediated ERK1/2 phosphorylation by Alpha-Screen plate-based assay
# Type: cell-based
# run-conditions: cho; read-out: IC50
assay-endpoint: IC50

Can you look up the measured IC50 of O=C(CCCCCCCCCCCCCCCCCCC(=O)NCCCN1CCN(C2=Nc3cc(Cl)ccc3Nc3ccccc32)CC1)NCCCN1CCN(C2=Nc3cc(Cl)ccc3Nc3ccccc32)CC1 for me?
> 10 µM

----------
# tested-target: D(2) dopamine receptor (Homo sapiens, UniProt P14416)
# Sequence (P14416 whole entry): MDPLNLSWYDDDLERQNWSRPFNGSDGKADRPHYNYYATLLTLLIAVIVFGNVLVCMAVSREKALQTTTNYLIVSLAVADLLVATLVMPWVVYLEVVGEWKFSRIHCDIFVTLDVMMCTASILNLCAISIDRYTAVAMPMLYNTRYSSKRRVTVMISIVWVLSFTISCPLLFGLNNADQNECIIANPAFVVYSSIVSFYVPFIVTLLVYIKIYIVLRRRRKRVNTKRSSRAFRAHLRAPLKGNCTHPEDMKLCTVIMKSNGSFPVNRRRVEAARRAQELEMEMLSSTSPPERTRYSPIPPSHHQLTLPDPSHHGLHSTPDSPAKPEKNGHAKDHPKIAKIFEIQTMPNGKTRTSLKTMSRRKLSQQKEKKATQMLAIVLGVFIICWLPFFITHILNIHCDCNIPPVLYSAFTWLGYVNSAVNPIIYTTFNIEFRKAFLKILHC
# assay-name: Displacement of [3H]-spiperone from human dopamine D2L receptor expressed in CHO FlpIn cell membrane measured after 3 hrs by topcount scintillation counting
# run-conditions: read-out: pKi (converted)
# if measured Ki < 3 nM: True  # else: False

Record O=C(CCCCCCCCCCCCCCCCC(=O)NCCCN1CCN(C2=Nc3cc(Cl)ccc3Nc3ccccc32)CC1)NCCCN1CCN(C2=Nc3cc(Cl)ccc3Nc3ccccc32)CC1 : is its Ki strictly below 3 nM?
False

Subsequent entry: CCCCCCCCCC(=O)NCCCN1CCN(C2=Nc3cc(Cl)ccc3Nc3ccccc32)CC1
False

Subsequent entry: O=C(CCCCC(=O)NCCCN1CCN(C2=Nc3cc(Cl)ccc3Nc3ccccc32)CC1)NCCCN1CCN(C2=Nc3cc(Cl)ccc3Nc3ccccc32)CC1
False

Subsequent entry: O=C(CCCCCCCCC(=O)NCCCN1CCN(C2=Nc3cc(Cl)ccc3Nc3ccccc32)CC1)NCCCN1CCN(C2=Nc3cc(Cl)ccc3Nc3ccccc32)CC1
True

Subsequent entry: O=C(CCCCCCC(=O)NCCCN1CCN(C2=Nc3cc(Cl)ccc3Nc3ccccc32)CC1)NCCCN1CCN(C2=Nc3cc(Cl)ccc3Nc3ccccc32)CC1
True
